These measurements were taken from patent US20170362301A1.

target: EGFR (form in the assay not stated) (human, UniProt P00533 25-645, limits assumed); test: ELISA, NEM conjugate 500 nM
READOUT NAME: binding ratio vs parent P54AR4-83v2

BINDER: P54AR4-83v2 S38C, NEM conjugate (designed binder, NEM on Cys 38, His-tagged) LPAPKNLVVSEVTEDSARLSWDDPWAFYESFLIQYQECEKVGEAIVLTVPGSERSYDLTGLKPGTEYTVSIYGVHNVYKDTNMRGLPLSAIFTT
READOUT NAME: binding ratio vs parent P54AR4-83v2
READOUT VALUE: 0.82 ratio

BINDER: P54AR4-83v2 L86C, NEM conjugate (designed binder, NEM on Cys 86, His-tagged) LPAPKNLVVSEVTEDSARLSWDDPWAFYESFLIQYQESEKVGEAIVLTVPGSERSYDLTGLKPGTEYTVSIYGVHNVYKDTNMRGCPLSAIFTT
READOUT NAME: binding ratio vs parent P54AR4-83v2
READOUT VALUE: 0.92 ratio
